Target: T1, FcRn-p3 fusion protein (human, UniProt P55899 24-297; P61769 21-119)
T1 construct: baculovirus expressed; coated on ELISA wells; not shown: amino terminal part of bacteriophage p3 protein and CVDE protein
T1 sequence (P55899 24-297, chain 1 of 2): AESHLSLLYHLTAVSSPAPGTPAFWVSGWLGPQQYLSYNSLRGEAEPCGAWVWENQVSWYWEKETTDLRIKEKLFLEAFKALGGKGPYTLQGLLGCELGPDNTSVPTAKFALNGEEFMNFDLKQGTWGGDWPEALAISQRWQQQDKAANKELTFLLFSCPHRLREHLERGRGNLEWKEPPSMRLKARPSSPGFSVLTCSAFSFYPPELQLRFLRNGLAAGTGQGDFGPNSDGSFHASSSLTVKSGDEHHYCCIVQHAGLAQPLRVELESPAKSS
T1 sequence (P61769 21-119, chain 2 of 2): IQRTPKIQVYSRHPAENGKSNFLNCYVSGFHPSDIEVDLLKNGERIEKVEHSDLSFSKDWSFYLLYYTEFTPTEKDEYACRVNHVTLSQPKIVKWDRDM
Test: phage ELISA pH6 (est.)
Label scheme for Ratio/FWT: lower than 10 fold is not fulfilled, 10 fold and above is fulfilled.

>>> assigned_label("T4A_31 (other, EU numbering) CPPCTAPELLGGPSVLLFPPKPKDTLMISRTPEVTCVVEDVSHEDPEVKFNWYVDGVEVHNAKTKPREEQYNSTYRVVSVLPVLHQDWLNGKEYKCKVSNKALPAPIEKTISKAKGQPREPQVYTLPPSRDELTKNQVSLTCLVKGFYPSDIVVEWESNGQPENNYKTTPPVLDSDGSFFLYSKLTVDKSRWQQGNVFSCSVMHEALHNHYTQKSLSLSPGK")
"fulfilled"
>>> assigned_label("C5A_12 (other, EU numbering) CPPCPAPELLGGPSVFLFPPKPKDTLMISRTPEVTCVVVDVSHEDPEVKFNWYVDGVEVHNAKTKPREEQYNSTYRVVSVLTVLHQDWLDGKEYKCKVSNKALPAPIEKTISKAKGQPREPQVYTLPPSRDELTKNEVSLTCLVKGFYPSDIAVEWESNGQPEKNYKTTPPVLDSDGSFFLYSKLTVDKSRWQQGNVFSCSVMHEALHYHYTQKSLSLSPGK")
"fulfilled"
>>> assigned_label("T7A_87 (other, EU numbering) CPPCSAPELLGGPSVFLFPPKPKDTLMISRTPEVTCVVVDVSHEDPEVKFNWYVDGVEVHNAKTKPREEQYNSTYRVVSVLTVLHQDWLDGKEYKCKVSNKALPAPIEKTISKAKGQPREPQVYTLPPSRDELTKNRVSLTCLVKGFYPSDIAVEWESNGQPENNYKTTPPVLDSDGSFFLYSKLTVDKSRWQQGNVFSCSVMHEALHYHYTQKSLSLSPGK")
"not fulfilled"
>>> assigned_label("C6A_05 (other, EU numbering) CPPCPAPELLGGPSVFLFPPKPKDTLMISRTPEVTCVVVDVSHEDPEVKFNWYVDGVEVHNAKTKPREEQYNSTYRVVSVLAVLHQDWLDGKEYKCKVSNKALPVPIEKTISKAKGQPREPQVYTLPPSRDELTKNQVSLTCLVKGFYPSDIAVEWESNGQPENNYKTTPPVLDSDGSFFLYSKLTVDKSRWQQGNVFSCSVMHEALHYHYTQKSLSLSPGK")
"not fulfilled"
>>> assigned_label("C4A_36 (other, EU numbering) CPPCPAPELLGGPSVFLFPPKPKDTLMISRTPEVTCVVVDVSHEDPEVKFNWYVDGVEVHNAKTKPREEQYNSTYRVVSVLTVLHQDWLDGKEYTCKVSNKALPAPIEKTISKAKGQPREPQVYTLPPSRDELTKNQVSLTCLVKGFYPSDIAVEWESNGQPENNYKTTPPVLDSDGSFFLYSKLTVDKSRWQQGNVFSCSVMHEALHYHYTQKSLSLSPGK")
"not fulfilled"
